These entries and their values trace back to patent US20240124597A1.

# tested on: T1, human-CD40-monomer protein (human, UniProt P25942 21-193, limits assumed)
# T1 construct: Soluble monomer generated in house, used as SPR analyte; also called hCD40; hCD40-monomer
# T1 sequence (P25942 21-193 limits assumed): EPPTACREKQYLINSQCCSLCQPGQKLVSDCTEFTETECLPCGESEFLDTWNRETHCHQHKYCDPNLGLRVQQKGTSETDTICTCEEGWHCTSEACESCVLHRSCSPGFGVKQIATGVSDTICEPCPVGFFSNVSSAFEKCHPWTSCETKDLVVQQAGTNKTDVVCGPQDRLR
# measurement notes: SPR, Ab captured on protein A, hCD40 monomer 500 and 50 nM, 1:1 fit; supernatant
readout label: koff (s⁻¹)
Your answer is read as s⁻¹, so omit the unit and give the number.

Worked cases, answers included:
binder	numeric value
Y12XX-hz23 (antibody, human IgG1, kappa, V domains shown, Humanized, IgG1-P238K; supernatant sample) VH: QVQLVQSGAEVKKPGSSVKVSCKASGYAFTSYWMHWVRQAPGQGLEWMGQINPSNGRSQYNEKFKTRVTITADKSTSTAYMELSSLRSEDTAVYYCARWGLQPFAYWGQGTLVTVSS VL: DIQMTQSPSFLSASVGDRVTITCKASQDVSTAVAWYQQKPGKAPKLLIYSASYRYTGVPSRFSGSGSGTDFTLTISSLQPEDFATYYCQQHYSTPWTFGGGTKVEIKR	0.00064
Y12XX-hz6 (antibody, human IgG1, kappa, V domains shown, Humanized, IgG1-P238K; supernatant sample) VH: QVQLVQSGAEVKKPGSSVKVSCKASGYAFTSYWMHWVRQRPGQGLEWIGYINPTTGYSAYNQKFKDKATLTADKSTSTAYMELNSLRSEDTAVYYCARWDPRPFAYWGQGTLVTVSS VL: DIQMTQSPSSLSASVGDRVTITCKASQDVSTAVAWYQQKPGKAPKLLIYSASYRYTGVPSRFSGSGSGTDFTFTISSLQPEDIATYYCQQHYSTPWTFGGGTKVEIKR	0.0024
Y12XX-hz33 (antibody, human IgG1, kappa, V domains shown, Humanized, IgG1-P238K; supernatant sample) VH: QVQLVQSGAEVKKPGSSVKVSCKASGYAFTSYWMHWVRQRPGQGLEWMGYINPTTGYSAYNQKFKDKATLTADKSTSTAYMELSSLRSEDTAVYYCARWDPRPFAYWGQGTLVTVSS VL: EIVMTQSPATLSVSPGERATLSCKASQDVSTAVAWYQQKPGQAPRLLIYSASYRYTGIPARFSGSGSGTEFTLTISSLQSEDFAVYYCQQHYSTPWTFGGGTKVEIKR	0.0033
Y12XX-hz1 (antibody, human IgG1, kappa, V domains shown, Humanized, IgG1-P238K; supernatant sample) VH: QVQLVQSGAEVKKPGSSVKVSCKASGYAFTSYWMHWVRQAPGQGLEWMGFINPTTGYSEYNQKFKDRVTITADKSTSTAYMELSSLRSEDTAVYYCARWGLPPFAYWGQGTLVTVSS VL: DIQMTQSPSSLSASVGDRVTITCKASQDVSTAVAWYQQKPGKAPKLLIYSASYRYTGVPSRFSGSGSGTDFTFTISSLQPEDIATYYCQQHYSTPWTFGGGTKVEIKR	1.6e-05
Y12XX-hz30 (antibody, human IgG1, kappa, V domains shown, Humanized, IgG1-P238K; supernatant sample) VH: QVQLVQSGAEVKKPGSSVKVSCKASGYAFTSYWMHWVRQRPGQGLEWMGFINPTTGYSEYNQKFKDRVTITADKSTSTAYMELSSLRSEDTAVYYCARWGLPPFAYWGQGTLVTVSS VL: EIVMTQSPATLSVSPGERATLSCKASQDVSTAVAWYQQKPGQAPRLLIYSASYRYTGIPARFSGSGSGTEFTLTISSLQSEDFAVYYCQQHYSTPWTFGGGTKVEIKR	7.3e-07
Y12XX-hz4 (antibody, human IgG1, kappa, V domains shown, Humanized, IgG1-P238K; supernatant sample) VH: QVQLVQSGAEVKKPGSSVKVSCKASGYAFTSYWMHWVRQAPGQGLEWMGYINPTTGYSAYNQKFKDKATLTADKSTSTAYMELSSLRSEDTAVYYCARWDPRPFAYWGQGTLVTVSS VL: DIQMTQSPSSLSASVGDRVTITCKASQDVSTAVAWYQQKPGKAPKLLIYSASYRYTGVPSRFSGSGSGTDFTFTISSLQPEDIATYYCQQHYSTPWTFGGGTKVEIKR	0.0022
Y12XX-hz24 (antibody, human IgG1, kappa, V domains shown, Humanized, IgG1-P238K; supernatant sample) VH: QVQLVQSGAEVKKPGSSVKVSCKASGYAFTSYWMHWVRQRPGQGLEWMGQINPSNGRSQYNEKFKTRVTITADKSTSTAYMELSSLRSEDTAVYYCARWGLQPFAYWGQGTLVTVSS VL: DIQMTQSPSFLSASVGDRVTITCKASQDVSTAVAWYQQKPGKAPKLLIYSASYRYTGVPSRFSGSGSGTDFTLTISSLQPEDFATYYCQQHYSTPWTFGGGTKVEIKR	0.00082
Y12XX-hz10 (antibody, human IgG1, kappa, V domains shown, Humanized, IgG1-P238K; supernatant sample) VH: QVQLVQSGAEVKKPGSSVKVSCKASGYAFTSYWMHWVRQRPGQGLEWMGQINPSNGRSQYNEKFKTRVTITADKSTSTAYMELSSLRSEDTAVYYCARWGLQPFAYWGQGTLVTVSS VL: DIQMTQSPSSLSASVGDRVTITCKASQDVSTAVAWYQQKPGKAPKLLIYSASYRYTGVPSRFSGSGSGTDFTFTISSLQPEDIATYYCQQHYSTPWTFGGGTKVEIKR	0.00073
Y12XX-hz39 (antibody, human IgG1, kappa, V domains shown, Humanized, IgG1-P238K; supernatant sample) VH: QVQLVQSGAEVKKPGSSVKVSCKASGYAFTSYWMHWVRQRPGQGLEWIGQINPSNGRSQYNEKFKTRVTITADKSTSTAYMELSSLRSEDTAVYYCARWGLQPFAYWGQGTLVTVSS VL: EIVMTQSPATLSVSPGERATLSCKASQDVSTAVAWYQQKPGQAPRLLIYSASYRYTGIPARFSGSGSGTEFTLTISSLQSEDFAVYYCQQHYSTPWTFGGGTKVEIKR	0.00084

Value lookup for koff; key = Y12XX-hz5 (antibody, human IgG1, kappa, V domains shown, Humanized, IgG1-P238K; supernatant sample) VH: QVQLVQSGAEVKKPGSSVKVSCKASGYAFTSYWMHWVRQRPGQGLEWMGYINPTTGYSAYNQKFKDKATLTADKSTSTAYMELSSLRSEDTAVYYCARWDPRPFAYWGQGTLVTVSS VL: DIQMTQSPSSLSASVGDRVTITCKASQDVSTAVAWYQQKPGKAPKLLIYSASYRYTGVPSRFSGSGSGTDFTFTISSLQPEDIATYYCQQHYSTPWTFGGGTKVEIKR
0.0025
